# ASSAY: protein stability index of a GFP-peptide fusion (GPS, HEK-293T) (PSI 1-6); higher = more stable;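 note: 24-mer peptide tiles fused after GFP, lentivirally expressed, FACS-sorted into six equal bins by GFP/DsRed ratio, decoded by Illumina sequencing, PSI is the read-weighted mean bin number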
# CONDITION_INFO: treatment: DMSO; c terminus: a fixed tail appended
ATTRIBUTE_MEASURED: protein stability index
Write the value as a bare number.

In the examples that follow, each entry is paired with its recorded protein stability index.
VDPANDTFDIDPMVVTDCIQVDPP [MCOLN1]: 5.09
SRDEAALPELLLGALPVGSNLTSN [RETREG3]: 4.19
EGDVCGVEPPGPGDTVVQGDLQET [PBXIP1]: 5.57
QTWNNSTWSNQTQNIQSWSNHSWN [NANOGP8]: 2.36
NPEEDEDQRNPAKESLETPSNGRI [SOAT1]: 5.76

Next sequence, protein stability index to be filled in.
Request: Can you look up the measured protein stability index of HPVNPPYYIPLVELVPHPETAPTT [CRYL1] for me?
Result: 3.51

* * *

Measured protein stability index accompanies every entry in the list below.
# ASSAY: protein stability index of a GFP-peptide fusion (GPS, HEK-293T) (PSI 1-6); higher = more stable
# CONDITION_INFO: treatment: DMSO; c terminus: a fixed tail appended
Just the number, please, no unit attached.

Please review the following examples before continuing.
GEVPVLIHGENIICEATQIIDYLE [GDAP1]: 3.55
PNRFLRGHRPPPARSGHRCVADNT [KLHDC10]: 4.04
VRVRQDSGAEGHSHSCYHDTRSGF [TRIM35]: 3.51
GSAGGLGSTLGGSSYSSCYSFGSG [KRT17]: 3.29

Request: Recorded protein stability index for LPGSYLSSECHTSGFVGSGGWFCE [KRT36] , please?
Result: 2.15

* * *

# ASSAY: protein stability index of a GFP-peptide fusion (GPS, HEK-293T) (PSI 1-6); higher = more stable
# CONDITION_INFO: treatment: MLN4924 1 uM, 8 h; c terminus: a fixed tail appended
Below, each of the sequences is paired with its reported protein stability index value.

Solved entries (count: 8):
GRNDLQQWIEVDARRLTRFTGVIT [CPXM2]: 2.56
LQDQEKAWGFPENATAPRSPSHSP [ELOA2]: 5.4
RVIKCDPDCLRACQEQIEALLESS [CCND1]: 3.19
FHGTRQYKFDPKTKRILTLQKANS [MMP1]: 2.6
HESVCKYYLCGFCPAELFTNTRSD [LUC7L3]: 2.54
AEQEALTGECKELEKKNEALKERA [ATF4]: 5.28
WTHVTLLIVVTQSHLVIHNLFEGM [CDS2]: 3.34
LYGGMNYRRLGGGVGVIKMTHCES [KLHL20]: 2.85

Could you now consider this next sequence?
Request: // protein stability index lookup, key: SLCCCCRWCCCCGERETRTPEELT [CLCN6]
Result: 3.88

* * *

# ASSAY: protein stability index of a GFP-peptide fusion (GPS, HEK-293T) (PSI 1-6); higher = more stable
# CONDITION_INFO: treatment: DMSO; c terminus: a fixed tail appended
Below, each entry is listed with its recorded protein stability index.
Just the number, please.

Worked cases, protein stability index given:
EILPFLYLGSAYHASKCEFLANLH [DUSP5]: 2.94
LMPGMPPGMPPPVPRPGIPPMTQA [ZNF207]: 4.01
AERLEVSVDGLTLSPDPEERPGAE [ACBD3]: 5.29
QPPPPRRVTNVGSLLLTPQENESL [WASL]: 4.73
DEIEEVPTTSHRLSRHDKAVQRFC [NETO1]: 4.78
VDDHTPWVKGSVPPPLDQYVKFDA [CLPTM1]: 3.99
HHDKVQSLCYLQLTRQLVSCSSDG [WDFY1]: 2.2
GSILQFNPEVGIFVSIAQSEQESL [SMG5]: 3.07

Proceeding to the next sequence to report its protein stability index.
Request: Item QEVTKLQQQVKTNGAGVTVLRREI [FBXO28] has what recorded protein stability index?
Result: 3.97
